Provenance of the data: PubChem BioAssay AID540333

Assay: antivirals protecting cells from dengue CPE – CPE readout, HTS (AID 540333)
Conditions: Dengue virus CPE inhibition in host cells, at 20 µM
The campaign covered roughly 10,000 compounds. About 320 (3.2%) were called active. Cut-off read from the data, not from the text of the source: active = CPE inhibition mostly above about 9.1% (no sharp cut-off); inactive = mostly below about 7.2%. For the sample, actives were picked, then their nearest neighbours and some compounds at random.
Please state which outcome applies, choosing from 1 (active), -1 (inactive)

Some solved cases for reference:
O=C(NCCCN1CCOCC1)C(Cl)(Cl)Cl	-1
O=C(/C=C/c1ccc2c(c1)OCO2)c1c(O)n(CCC2=CCCCC2)c(=O)[nH]c1=O	-1
CN1c2ccc([N+](=O)[O-])cc2CC2(C(=O)NC(=O)N(c3ccccc3)C2=O)C1c1ccccc1 (stereo unspecified)	1
CCCc1nc2ccc(Br)cc2c(=O)n1-c1ccc([N+](=O)[O-])c(C(F)(F)F)c1	-1
CN1c2ccc([N+](=O)[O-])cc2CC2(C(=O)NC(=O)NC2=O)C1c1ccccc1 (stereo unspecified)	-1

Could you check what this test reported for `CCC(=NCCC(c1ccccc1)c1ccccc1)c1c(O)[nH]c(=O)[nH]c1=O` ?
-1

Could you check what this test reported for `COC(=O)C1=C(c2ccc(F)cc2F)C[C@@H]2CC[C@H]1N2C(=O)NC(C)C` ?
-1

Could you check what this test reported for `CCCNC(=O)N1[C@H]2CC[C@@H]1C(C(=O)OC)=C(c1cc3ccccc3o1)C2` ?
-1
